molecular target: Recombinant JAK3 (Amino acids 781-1124) (Homo sapiens, UniProt P52333); construct: JAK3 (Amino acids 781-1124; NM_000215.3); experiment: Kinase-Glo Luminescent Kinase Assay, recombinant JAK3; conditions: 200 μg/ml Poly Glu-Tyr (4:1), ATP 1 uM, 90 min room temperature, luminescence
Sequence (P52333 781-1124): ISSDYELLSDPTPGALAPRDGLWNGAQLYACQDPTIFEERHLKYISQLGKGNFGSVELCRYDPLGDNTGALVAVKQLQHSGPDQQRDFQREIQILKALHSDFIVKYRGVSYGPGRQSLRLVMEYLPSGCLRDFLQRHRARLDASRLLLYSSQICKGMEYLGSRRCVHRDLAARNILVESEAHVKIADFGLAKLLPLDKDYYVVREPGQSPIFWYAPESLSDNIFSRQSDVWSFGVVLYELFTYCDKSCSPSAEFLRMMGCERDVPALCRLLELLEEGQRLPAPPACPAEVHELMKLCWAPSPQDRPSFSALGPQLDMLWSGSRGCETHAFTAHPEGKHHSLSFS
pIC50: −log10 of the molar value.
We begin with a simple list: items and their reported pIC50.

Reported pIC50 for O=S(=O)(CC(F)(F)F)NC1CCCN(c2ccnc3cnc4[nH]ccc4c23)C1 (stereo not shown) [Ex. 86] was 7.70 to 9.00

Reported pIC50 for CC(C)/C(=N\C#N)N1CCC[C@@H](c2ccnc3cnc4[nH]ccc4c23)C1 [Ex. 43B] was 7.70 to 9.00

Reported pIC50 for CC(C)S(=O)(=O)N1CCCC(c2ccnc3cnc4[nH]ccc4c23)C1 (stereo not shown) [Ex. 11] was < 7.70

Reported pIC50 for N#CCS(=O)(=O)N1CCCC(c2ccnc3cnc4[nH]ccc4c23)C1 (stereo not shown) [Ex. 7] was 7.70 to 9.00

###

molecular target: Recombinant JAK2 (Amino acids 808-1132) (Homo sapiens, UniProt O60674); construct: JAK2 (Amino acids 808-1132; NM_004972.3); assay: Kinase-Glo Luminescent Kinase Assay, recombinant JAK2; settings: 200 μg/ml Poly Glu-Tyr (4:1), ATP 1 uM, 90 min room temperature, luminescence
Sequence (O60674 808-1132): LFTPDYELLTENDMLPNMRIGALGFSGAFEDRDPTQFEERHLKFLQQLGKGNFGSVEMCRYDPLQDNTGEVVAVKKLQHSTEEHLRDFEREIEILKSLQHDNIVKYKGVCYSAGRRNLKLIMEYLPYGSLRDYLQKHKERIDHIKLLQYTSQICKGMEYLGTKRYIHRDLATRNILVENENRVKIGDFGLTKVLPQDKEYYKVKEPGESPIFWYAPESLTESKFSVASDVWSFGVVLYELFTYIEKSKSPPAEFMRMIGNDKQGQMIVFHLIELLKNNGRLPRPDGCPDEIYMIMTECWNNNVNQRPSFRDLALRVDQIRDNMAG
We begin with a simple list: items and their reported IC50.

Some compounds with recorded IC50:
1) CS(=O)(=O)N1CCC[C@H](c2ccnc3cnc4[nH]ccc4c23)C1 [Ex. 10A]    > 20 nM
2) O=S(=O)(CC(F)(F)F)NC1CCN(c2ccnc3cnc4[nH]ccc4c23)C1 (stereo not drawn)    1 to 20 nM
3) N#CCC(=O)N1CCC[C@H](c2ccnc3cnc4[nH]ccc4c23)C1    > 20 nM
4) N#CCC(=O)N1CCCC(c2ncnc3cnc4[nH]ccc4c23)C1 (stereo not drawn)    1 to 20 nM
5) CC(C)(C)C(=O)N1CCCC(c2ncnc3cnc4[nH]ccc4c23)C1 (stereo not drawn)    1 to 20 nM

Reported IC50 for c1cc(N2CCCC(OCC3CC3)C2)c2c(cnc3[nH]ccc32)n1 (stereo not drawn) was 1 to 20 nM

Reported IC50 for O=C(CC(F)(F)F)N1CCC(c2ccnc3cnc4[nH]ccc4c23)C1 (stereo not drawn) was 1 to 20 nM

Reported IC50 for O=C(CC1CC1)N1CCCC(c2ncnc3cnc4[nH]ccc4c23)C1 (stereo not drawn) was > 20 nM

Reported IC50 for CS(=O)(=O)N1CCCC(c2ccnc3cnc4[nH]ccc4c23)C1 (stereo not drawn) was 1 to 20 nM

###

target: Recombinant JAK1 (Amino acids 850-1154) (Homo sapiens); construct: Recombinant JAK1 (Amino acids 850-1154; NM_002227.2); assay: Kinase-Glo Luminescent Kinase Assay, recombinant JAK1; conditions: 200 μg/ml Poly Glu-Tyr (4:1), ATP 1 uM, 90 min room temperature, luminescence
Sequence (P23458 850-1154): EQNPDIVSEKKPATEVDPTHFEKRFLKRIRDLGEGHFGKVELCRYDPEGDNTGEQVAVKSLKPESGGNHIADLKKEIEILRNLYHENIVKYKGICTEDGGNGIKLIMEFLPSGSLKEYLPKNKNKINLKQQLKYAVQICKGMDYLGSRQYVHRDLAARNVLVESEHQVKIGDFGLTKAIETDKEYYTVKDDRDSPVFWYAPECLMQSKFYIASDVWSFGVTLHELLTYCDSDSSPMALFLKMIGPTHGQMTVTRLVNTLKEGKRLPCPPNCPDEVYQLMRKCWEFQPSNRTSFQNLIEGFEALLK
readout_name: IC50

Some compounds with recorded IC50:
1. CC(C)/C(=N\C#N)N1CCC[C@@H](c2ccnc3cnc4[nH]ccc4c23)C1 [Ex. 43B]    1 to 20 nM
2. N#CCC(=O)N1CCC(c2ccnc3cnc4[nH]ccc4c23)C1 (stereo not drawn) [Ex. 14]    1 to 20 nM
3. N#C/N=C(\CC(F)(F)F)N1CCC(c2ccnc3cnc4[nH]ccc4c23)C1 (stereo not drawn) [Ex. 45]    1 to 20 nM
4. CN(C(=O)C1CCCN(c2ccnc3cnc4[nH]ccc4c23)C1)C1CC1 (stereo not drawn) [Ex. 79]    1 to 20 nM
5. O=C(CC1CC1)N1CCCC(c2ncnc3cnc4[nH]ccc4c23)C1 (stereo not drawn) [Ex. 25]    1 to 20 nM

Reported IC50 for CS(=O)(=O)CC(=O)N1CCCC(c2ccnc3cnc4[nH]ccc4c23)C1 (stereo not drawn) [Ex. 12] was 1 to 20 nM

Reported IC50 for O=C(NC1CCCN(c2ccnc3cnc4[nH]ccc4c23)C1)C1CC1 (stereo not drawn) [Ex. 74] was > 20 nM

Reported IC50 for CN(C(=O)CC1CC1)C1CCCN(c2ccnc3cnc4[nH]ccc4c23)C1 (stereo not drawn) [Ex. 63] was > 20 nM

Reported IC50 for CC(C)S(=O)(=O)N1CCCC(c2ccnc3cnc4[nH]ccc4c23)C1 (stereo not drawn) [Ex. 11] was > 20 nM

###

target: Recombinant JAK2 (Amino acids 808-1132) (Homo sapiens, UniProt O60674); construct: JAK2 (Amino acids 808-1132; NM_004972.3); experiment: Kinase-Glo Luminescent Kinase Assay, recombinant JAK2; conditions: 200 μg/ml Poly Glu-Tyr (4:1), ATP 1 uM, 90 min room temperature, luminescence
We begin with a simple list: items and their reported IC50.

Some compounds with recorded IC50:
1. CNC(=O)C1CCCN(c2ccnc3cnc4[nH]ccc4c23)C1 (centres unmarked)    > 20 nM
2. CCNC(=O)C1CCCN(c2ccnc3cnc4[nH]ccc4c23)C1 (centres unmarked)    > 20 nM
3. N#CCC(=O)N1CCCC(c2ccnc3cnc4[nH]ccc4c23)C1 (centres unmarked)    1 to 20 nM
4. CCC(=O)N1CCCC(c2ncnc3cnc4[nH]ccc4c23)C1 (centres unmarked)    > 20 nM
5. CC(C)(C)OC(=O)N1CCCC(c2ncnc3cnc4[nH]ccc4c23)C1 (centres unmarked)    > 20 nM
6. O=S(=O)(N1CCC(c2ccnc3cnc4[nH]ccc4c23)C1)C(F)(F)F (centres unmarked)    1 to 20 nM

Reported IC50 for CCNC(=O)N1CCCC(c2ccnc3cnc4[nH]ccc4c23)C1 (centres unmarked) was > 20 nM

Reported IC50 for N#CCS(=O)(=O)N1CC[C@H](c2ccnc3cnc4[nH]ccc4c23)C1 [Ex. 16A] was 1 to 20 nM

Reported IC50 for O=C(NC1CC1)C1CCCN(c2ccnc3cnc4[nH]ccc4c23)C1 (centres unmarked) was > 20 nM

Reported IC50 for CCS(=O)(=O)N1CCCC(c2ccnc3cnc4[nH]ccc4c23)C1 (centres unmarked) was 1 to 20 nM

Reported IC50 for CC(C)NC(=O)C1CCN(c2ccnc3cnc4[nH]ccc4c23)C1 (centres unmarked) was > 20 nM

Reported IC50 for c1cc(N2CCC(OCC3CC3)CC2)c2c(cnc3[nH]ccc32)n1 was > 20 nM

Reported IC50 for N#C/N=C(\CC(F)(F)F)N1CCC(c2ccnc3cnc4[nH]ccc4c23)C1 (centres unmarked) was 1 to 20 nM

Reported IC50 for N#CCC(=O)N1CCC(c2ccnc3cnc4[nH]ccc4c23)C1 (centres unmarked) was 1 to 20 nM

###

target: Recombinant JAK2 (Amino acids 808-1132) (Homo sapiens); construct: JAK2 (Amino acids 808-1132; NM_004972.3); test: Kinase-Glo Luminescent Kinase Assay, recombinant JAK2; conditions: 200 μg/ml Poly Glu-Tyr (4:1), ATP 1 uM, 90 min room temperature, luminescence
We begin with a simple list: items and their reported IC50.

1. CC(C)CNC(=O)N1CCCC(c2ccnc3cnc4[nH]ccc4c23)C1 (stereo not drawn)    > 20 nM
2. O=C(CC(F)(F)F)NC1CCCN(c2ccnc3cnc4[nH]ccc4c23)C1 (stereo not drawn)    1 to 20 nM

Okay, next one:
Reported IC50 for O=C(CC(F)(F)F)N1CC[C@@H](c2ccnc3cnc4[nH]ccc4c23)C1 [Ex. 15B] was 1 to 20 nM

###

molecular target: Recombinant JAK3 (Amino acids 781-1124) (Homo sapiens); construct: JAK3 (Amino acids 781-1124; NM_000215.3); assay: Kinase-Glo Luminescent Kinase Assay, recombinant JAK3; conditions: 200 μg/ml Poly Glu-Tyr (4:1), ATP 1 uM, 90 min room temperature, luminescence
We begin with a simple list: items and their reported IC50.

Some molecules with recorded IC50:
1) c1cc(N2CCCC(OCC3CC3)C2)c2c(cnc3[nH]ccc32)n1 (stereo not shown)    0.001 to 0.02 µM
2) O=S(=O)(NC1CCN(c2ccnc3cnc4[nH]ccc4c23)C1)C1CC1 (stereo not shown)    > 0.02 µM
3) O=C(CC(F)(F)F)N1CC[C@H](c2ccnc3cnc4[nH]ccc4c23)C1 [Ex. 15A]    > 0.02 µM
4) CS(=O)(=O)N1CCC[C@@H](c2ccnc3cnc4[nH]ccc4c23)C1 [Ex. 10B]    0.001 to 0.02 µM
5) CC(C)NC(=O)N1CCCC(c2ccnc3cnc4[nH]ccc4c23)C1 (stereo not shown)    > 0.02 µM

Okay, next one:
Reported IC50 for O=C(NC1CC1)C1CCN(c2ccnc3cnc4[nH]ccc4c23)C1 (stereo not shown) was > 0.02 µM

###

biological target: Recombinant JAK2 (Amino acids 808-1132) (Homo sapiens, UniProt O60674); construct: JAK2 (Amino acids 808-1132; NM_004972.3); assay: Kinase-Glo Luminescent Kinase Assay, recombinant JAK2; settings: 200 μg/ml Poly Glu-Tyr (4:1), ATP 1 uM, 90 min room temperature, luminescence
pIC50: −log10 of the molar value.
We begin with a simple list: items and their reported pIC50.

Some compounds with recorded pIC50:
1. CC(C)NC(=O)C1CCCN(c2ccnc3cnc4[nH]ccc4c23)C1 (stereo not shown)    < 7.70
2. CNC(=O)N1CCCC(c2ccnc3cnc4[nH]ccc4c23)C1 (stereo not shown)    < 7.70

Reported pIC50 for CC(C)NC(=O)N1CCCC(c2ncnc3cnc4[nH]ccc4c23)C1 (stereo not shown) was < 7.70

Reported pIC50 for O=C(NC1CC1)C1CCN(c2ccnc3cnc4[nH]ccc4c23)C1 (stereo not shown) was < 7.70

Reported pIC50 for CS(=O)(=O)N1CCC[C@@H](c2ccnc3cnc4[nH]ccc4c23)C1 [Ex. 10B] was 7.70 to 9.00

Reported pIC50 for N#CCC(=O)N1CCN(c2ccnc3cnc4[nH]ccc4c23)CC1 was < 7.70

Reported pIC50 for COCCOC1CCCN(c2ccnc3cnc4[nH]ccc4c23)C1 (stereo not shown) was < 7.70

Reported pIC50 for O=C(C1CC1)N1CCCC(c2ncnc3cnc4[nH]ccc4c23)C1 (stereo not shown) was < 7.70

Reported pIC50 for O=C(CC(F)(F)F)N1CCC[C@H](c2ccnc3cnc4[nH]ccc4c23)C1 was 7.70 to 9.00
